Listed below: efflux inhibition (fraction of control) values for each entry.
Experiment: inhibitors of fungal efflux pumps CDR1, CDR2, MDR1, pilot screen, validation compound set, multiplex, phenotypic (AID 588506);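 also: Nile Red retained in cells so higher fluorescence means more efflux inhibition; 0 = negative control wells and 1 = enniatin B 25 µM full block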
Settings: S. cerevisiae pump-expressing triplex, Nile Red efflux flow cytometry; at 10 µM; active compounds read high
The source made the active and inactive calls.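 The calls were made as follows: active = efflux inhibition above 0.42, the validation set average plus 4 SD; inconclusive = no clear call, values can overlap the other calls; inactive = the rest.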

Some entries whose results are on file:
Compound: c1cnc2c(c1)ccc1ncccc12
efflux inhibition (fraction of control): 0.08 (inactive)
--
Compound: COc1ccc(CN2CC3CC(C2)c2cccc(=O)n2C3)cc1OC (centres undefined)
efflux inhibition (fraction of control): 0.39 (inactive)
--
Compound: C[C@@H]1O[C@@H](O[C@H]2C[C@@H](O)[C@]3(CO)[C@H]4[C@H](O)C[C@]5(C)[C@@H](C6COC(=O)C6)CC[C@]5(O)[C@@H]4CC[C@]3(O)C2)[C@H](O)[C@H](O)[C@H]1O (some centres undefined)
efflux inhibition (fraction of control): -0.04 (inactive)
--
Compound: NNC(=O)c1ccc(Cl)cc1
efflux inhibition (fraction of control): -0.36 (inactive)
--
Compound: COc1ccc2c(c1)CC1(CN2C)C(=O)NC(=O)N(CCc2ccccc2)C1=O (centres undefined)
efflux inhibition (fraction of control): -0.07 (inactive)

IN: May I ask what efflux inhibition (fraction of control) has been recorded for `CCNC(=O)[C@H]1O[C@@H](n2cnc3c(N)ncnc32)[C@H](O)[C@@H]1O` ?
OUT: 0.37 (inactive)

IN: May I ask what efflux inhibition (fraction of control) has been recorded for CC(=O)OC1C2CCC1C(N1CCCC1)CC2 (centres undefined) ?
OUT: -0.04 (inactive)

IN: May I ask what efflux inhibition (fraction of control) has been recorded for CN1[C@@H]2CC[C@H]1CC(OC(=O)C1C=Nc3ccccc31)C2 (some centres undefined) ?
OUT: -0.2 (inactive)

IN: May I ask what efflux inhibition (fraction of control) has been recorded for `C[C@H](O)[C@H]1CC[C@H]2[C@@H]3CCC4=CC(=O)CC[C@]4(C)[C@H]3CC[C@]12C` ?
OUT: -0.17 (inactive)

IN: May I ask what efflux inhibition (fraction of control) has been recorded for COc1ccccc1CN1CCCCC1c1cccnc1 (centres undefined) ?
OUT: -0.17 (inactive)

IN: May I ask what efflux inhibition (fraction of control) has been recorded for `c1ccc(Cn2ccnc2)cc1` ?
OUT: 0.03 (inactive)
